systemName: Reverse transcriptase (Human immunodeficiency virus 2)
procedureDetails: Inhibition of HIV2 reverse transcriptase using poly(A).oligo(dT) template/primer after 30 mins at 200 ug/mL
The source made the active and inactive calls. No cut-off for these calls is given here.
propertyName: inhibition

Example compounds with recorded inhibition:
itemSmiles: Cc1ccc(N2CCN(C(=O)c3cc4c5ccccc5n(C)c4c(-c4ccccc4)n3)CC2)cc1
inhibition: inactive
--
itemSmiles: COc1ccccc1N1CCN(C(=O)c2cc3c4ccccc4n(C)c3c(-c3ccccc3)n2)CC1
inhibition: inactive
--
itemSmiles: Cn1c2ccccc2c2cc(C(=O)N3CCN(c4ccc(F)cc4)CC3)nc(-c3ccccc3)c21
inhibition: inactive
--
itemSmiles: Cn1c2ccccc2c2cc(C(=O)N3CCN(c4ccccc4F)CC3)nc(-c3ccccc3)c21
inhibition: inactive

Now look at this entry.
Using the record for `Cn1c2ccccc2c2cc(C(=O)N3CCN(c4ccccc4)CC3)nc(-c3ccccc3)c21` , state its measured inhibition. inactive

---

System: Human immunodeficiency virus 2
procedureDetails: Antiviral activity against HIV2 ROD infected in human MT4 cells assessed as protection against virus-induced cytotoxicity after 5 days by MTT assay
Format: functional, organism-based
assayConditions: Human immunodeficiency virus 2, ISOLATE ROD, MT4, 120 h
propertyName: pEC50
The read-out pEC50 is expressed as -log10 of concentration in moles per litre.

Example compounds with recorded pEC50:
itemSmiles: Cc1ccc(N2CCN(C(=O)c3cc4c5ccccc5n(C)c4c(-c4ccccc4)n3)CC2)cc1
reportedValue: 5.48
//
itemSmiles: Cc1cn([C@H]2C[C@H](N=[N+]=[N-])[C@@H](CO)O2)c(=O)[nH]c1=O
reportedValue: 8.80
//
itemSmiles: COc1ccccc1N1CCN(C(=O)c2cc3c4ccccc4n(C)c3c(-c3ccccc3)n2)CC1
reportedValue: 5.49
//
itemSmiles: Cn1c2ccccc2c2cc(C(=O)N3CCN(c4ccccc4F)CC3)nc(-c3ccccc3)c21
reportedValue: 5.27
//
itemSmiles: Cn1c2ccccc2c2cc(C(=O)N3CCN(c4ccccc4)CC3)nc(-c3ccccc3)c21
reportedValue: 4.53

Using the record for `O=c1[nH]cnc2c1ncn2[C@H]1CC[C@@H](CO)O1` , state its measured pEC50. 5.64

Using the record for `Cn1c2ccccc2c2cc(C(=O)N3CCN(c4ccc(F)cc4)CC3)nc(-c3ccccc3)c21` , state its measured pEC50. 5.59

Using the record for `Nc1ccn([C@@H]2CS[C@H](CO)O2)c(=O)n1` , state its measured pEC50. 5.45

---

Below is a list of entries, each paired with its recorded CC50 value.
System: HeLa
procedureDetails: Cytotoxicity against mock-infected human […] cells by MTT assay
Format: functional

Example compounds with recorded CC50:
itemSmiles: Cn1c2ccccc2c2cc(C(=O)N3CCN(c4ccc([N+](=O)[O-])cc4)CC3)nc(-c3ccccc3)c21
CC50: > 204 µM
//
itemSmiles: O=c1[nH]cnc2c1ncn2[C@H]1CC[C@@H](CO)O1
CC50: > 50 µM
//
itemSmiles: Nc1ccn([C@@H]2CS[C@H](CO)O2)c(=O)n1
CC50: > 20 µM
//
itemSmiles: Cn1c2ccccc2c2cc(C(=O)N3CCN(c4ccc(F)cc4)CC3)nc(-c3ccccc3)c21
CC50: > 189 µM
//
itemSmiles: Cn1c2ccccc2c2cc(C(=O)N3CCN(c4ccccc4)CC3)nc(-c3ccccc3)c21
CC50: > 224 µM
//
itemSmiles: Cc1ccnc2c1NC(=O)c1cccnc1N2C1CC1
CC50: > 4 µM
//
itemSmiles: Cn1c2ccccc2c2cc(C(=O)N3CCN(c4ccc(Cl)cc4)CC3)nc(-c3ccccc3)c21
CC50: > 208 µM
//
itemSmiles: COc1ccc(N2CCN(C(=O)c3cc4c5ccccc5n(C)c4c(-c4ccccc4)n3)CC2)cc1
CC50: > 210 µM

Now look at this entry.
Using the record for `Cc1cn([C@H]2C[C@H](N=[N+]=[N-])[C@@H](CO)O2)c(=O)[nH]c1=O` , state its measured CC50. > 25 µM
